- Test system: Bone Marrow Derived Mesenchymal Stem Cells, human (BM-MSC); myofibroblast content
- PROCEDURE DETAILS: Myofibroblast reduction phenotype in TGF-beta-1 fibrogenic differentiation culture (high-content imaging)
- Format: cell-based
- CONDITION NOTES: first experiment; unit nm [sic]; read-out: IC50 Phenotype (myofibroblast reduction)
ASSAY METRIC: pIC50
Give only the number. pIC50 is defined as minus log10 of concentration in molar units.

Recorded pIC50 for CCCc1c(-c2ccccc2)nn(-c2ccccn2)c1O with Bone Marrow Derived Mesenchymal Stem Cells, human (BM-MSC); myofibroblast content, please? 6.20

----------
- System: Bone Marrow Derived Mesenchymal Stem Cells, human (BM-MSC); myofibroblast content
- PROCEDURE DETAILS: Myofibroblast reduction phenotype in TGF-beta-1 fibrogenic differentiation culture (high-content imaging)
- Format: cell-based
- CONDITION NOTES: Homo sapiens, BMMSC; replicate experiment; read-out: IC50 Phenotype Replicate
ASSAY METRIC: pIC50
Give only the number. pIC50 is defined as minus log10 of concentration in molar units.

In the examples that follow, each entry is paired with its recorded pIC50.
CN(C)c1cccc(-c2c3c(=O)n(-c4ccccc4Cl)[nH]c3cc(=O)n2C)c1
6.90
c1ccc(Cn2nnc3c(Sc4nc5ccccc5o4)ncnc32)cc1
6.05
O=c1c2c3n(c(=O)cc2[nH]n1-c1ccccc1Cl)CCCN(Cc1ccccc1)C3
6.83

Field: next compound
Would you kindly share the measured pIC50 for CC(CNS(=O)(=O)c1ccc(C(F)(F)F)cc1)N1CCc2ccccc21 (stereo not shown) ? 6.48
